ASSAY_SYSTEM: hNaV1.7 (Homo sapiens, UniProt Q15858)
Construct: expressed in transfected cells; host or cells: HEK293
Sequence (Q15858 whole entry): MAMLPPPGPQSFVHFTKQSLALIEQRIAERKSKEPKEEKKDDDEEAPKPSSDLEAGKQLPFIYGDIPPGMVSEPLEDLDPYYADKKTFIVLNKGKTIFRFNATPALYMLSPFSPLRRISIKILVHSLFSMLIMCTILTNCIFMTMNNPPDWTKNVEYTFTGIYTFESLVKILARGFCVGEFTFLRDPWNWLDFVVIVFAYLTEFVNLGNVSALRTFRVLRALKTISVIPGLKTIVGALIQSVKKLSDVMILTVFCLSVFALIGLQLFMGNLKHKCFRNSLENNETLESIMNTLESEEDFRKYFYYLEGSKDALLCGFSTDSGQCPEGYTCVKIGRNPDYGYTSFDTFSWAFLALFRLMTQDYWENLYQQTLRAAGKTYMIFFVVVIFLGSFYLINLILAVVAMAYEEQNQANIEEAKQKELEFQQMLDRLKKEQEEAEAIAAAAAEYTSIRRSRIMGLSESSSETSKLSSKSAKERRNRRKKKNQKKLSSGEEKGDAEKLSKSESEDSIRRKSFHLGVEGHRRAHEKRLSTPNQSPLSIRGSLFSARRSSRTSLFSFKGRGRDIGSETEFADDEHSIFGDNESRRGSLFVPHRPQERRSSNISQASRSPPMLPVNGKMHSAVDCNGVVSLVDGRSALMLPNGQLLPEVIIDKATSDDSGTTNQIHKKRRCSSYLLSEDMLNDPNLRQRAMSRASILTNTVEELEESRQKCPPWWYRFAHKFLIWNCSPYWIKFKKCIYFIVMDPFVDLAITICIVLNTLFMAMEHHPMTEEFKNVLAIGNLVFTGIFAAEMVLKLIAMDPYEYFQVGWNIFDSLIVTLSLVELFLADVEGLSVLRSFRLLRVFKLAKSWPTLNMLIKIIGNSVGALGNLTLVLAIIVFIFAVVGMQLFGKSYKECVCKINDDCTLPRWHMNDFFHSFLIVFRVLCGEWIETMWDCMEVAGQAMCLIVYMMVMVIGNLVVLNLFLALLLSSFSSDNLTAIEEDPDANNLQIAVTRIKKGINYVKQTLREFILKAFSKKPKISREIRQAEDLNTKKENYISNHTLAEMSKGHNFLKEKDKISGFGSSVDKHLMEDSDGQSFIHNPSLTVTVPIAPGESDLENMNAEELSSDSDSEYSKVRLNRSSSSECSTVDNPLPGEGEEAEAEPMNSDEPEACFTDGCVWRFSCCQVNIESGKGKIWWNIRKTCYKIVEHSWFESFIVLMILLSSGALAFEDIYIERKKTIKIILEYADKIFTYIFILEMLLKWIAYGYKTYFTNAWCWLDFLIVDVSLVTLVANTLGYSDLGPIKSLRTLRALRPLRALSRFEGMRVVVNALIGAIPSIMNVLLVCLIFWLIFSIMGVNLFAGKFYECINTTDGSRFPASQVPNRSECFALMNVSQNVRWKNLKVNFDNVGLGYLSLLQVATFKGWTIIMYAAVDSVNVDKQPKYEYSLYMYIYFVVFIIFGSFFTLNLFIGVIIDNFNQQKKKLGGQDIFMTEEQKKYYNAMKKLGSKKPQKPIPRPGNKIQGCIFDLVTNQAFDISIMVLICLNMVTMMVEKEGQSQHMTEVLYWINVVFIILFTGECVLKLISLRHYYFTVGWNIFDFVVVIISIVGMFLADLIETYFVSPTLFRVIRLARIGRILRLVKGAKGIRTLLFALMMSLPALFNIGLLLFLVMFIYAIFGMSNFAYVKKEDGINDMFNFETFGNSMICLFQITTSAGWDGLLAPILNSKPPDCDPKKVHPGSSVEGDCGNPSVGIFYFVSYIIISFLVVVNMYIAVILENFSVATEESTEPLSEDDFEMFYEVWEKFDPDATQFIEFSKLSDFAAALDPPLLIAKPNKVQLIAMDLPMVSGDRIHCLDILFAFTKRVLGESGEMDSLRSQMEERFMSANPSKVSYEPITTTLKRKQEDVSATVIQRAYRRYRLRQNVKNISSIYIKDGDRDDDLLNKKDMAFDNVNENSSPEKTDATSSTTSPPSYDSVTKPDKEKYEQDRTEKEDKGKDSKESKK
METHOD: QPatch NaV1.7 assay (whole-cell patch clamp, QPatch16x)
Format: cell-based
CONDITION_NOTES: holding voltage −90 mV (most channels closed), HEK293-hNaV1.7 cells, read-out: QP Nav1.7 −90 mV pIC50 (converted)
Structures can show the parent of a compound that is named as a salt.
Threshold 60 µM. IC50 below it: Satisfied. IC50 at it or above: Not satisfied.

COMPOUND	CAT
CN1CC[C@@]2(CC[C@H](c3cc(-c4ccccc4C(F)(F)F)ccn3)N2)C1=O [Example 7, hydrochloride]	Not satisfied
O=C1NCCC[C@@]12CC[C@H](c1cc(-c3ccc(C(F)(F)F)cc3)ccn1)N2 [Example 49, hydrochloride]	Satisfied
CCOc1ccc(F)c(-c2ccnc([C@H]3CC[C@]4(CCN(C)C4=O)N3)c2C)c1 [Example 212, hydrochloride]	Not satisfied
CCOc1ccc(F)c(-c2cc(C(C)C)nc([C@H]3CC[C@]4(CCN(C)C4=O)N3)c2)c1 [Example 234, hydrochloride]	Satisfied
CCOc1ccc(F)c(-c2cc([C@@H]3CC[C@]4(CCN(C)C4=O)N3)nc(C)c2C)c1 [Example 143, hydrochloride]	Not satisfied
Cc1cc(-c2ccc(F)cc2)cc([C@@H]2CC[C@]3(CCN(C)C3=O)N2)n1 [Example 56, hydrochloride]	Not satisfied
CN1CC[C@@]2(CC[C@H](c3cc(-c4ccccc4F)ccn3)N2)C1=O [Example 32, hydrochloride]	Not satisfied
Cc1cc(C)c(-c2ccnc([C@H]3CC[C@@]4(CCN(C)C4=O)N3)c2)c(C)c1 [Example 2, hydrochloride]	Not satisfied
CC(C)COc1ccc(F)c(-c2ccnc([C@H]3CC[C@@]4(CCN(C)C4=O)N3)c2)c1 [Example 253, hydrochloride]	Satisfied
CN1CC[C@@]2(CC[C@H](c3cc(-c4ccc(F)cc4F)ccn3)N2)C1=O [Example 9, hydrochloride]	Not satisfied
Cc1cc(-c2ccc(F)cc2)cc([C@H]2CC[C@@]3(CCN(C)C3=O)N2)n1 [Example 57, hydrochloride]	Not satisfied
CCOc1cccc(-c2cc(C)nc([C@H]3CC[C@@]4(CCN(C)C4=O)N3)c2)c1 [Example 207, hydrochloride]	Not satisfied
Cc1cnc([C@@H]2CC[C@@]3(CCN(C)C3=O)N2)cc1-c1ccc(C(F)(F)F)cc1 [Example 40, hydrochloride]	Satisfied
Cc1cscc1-c1ccnc([C@H]2CC[C@@]3(CCN(C)C3=O)N2)c1 [Example 78, hydrochloride]	Not satisfied
COc1ccc(Cl)c(-c2ccnc([C@H]3CC[C@@]4(CCN(C)C4=O)N3)c2)c1 [Example 83, hydrochloride]	Not satisfied
O=C1NCC[C@@]12CC[C@@H](c1cc(-c3cccc(OC(F)(F)F)c3)ccn1)N2 [Example 119, hydrochloride]	Satisfied
CN1CC[C@@]2(CC[C@H](c3cc(-c4cc(OCC(F)F)ccc4F)ccn3)N2)C1=O [Example 252, hydrochloride]	Not satisfied
CCc1cccc(-c2cc(C)nc([C@H]3CC[C@@]4(CCN(C)C4=O)N3)c2)c1 [Example 205, hydrochloride]	Not satisfied
CCOc1ccc(F)c(-c2ccnc([C@H]3CC[C@]4(CCCNC4=O)N3)c2)c1 [Example 107, hydrochloride]	Satisfied
CC1(C)C[C@@]2(CC[C@@H](c3cc(-c4ccc(C(F)(F)F)cc4)ccn3)N2)C(=O)N1 [Example 44, hydrochloride]	Satisfied
CN1CC[C@@]2(CC[C@H](c3cc(-c4cc(F)cc(F)c4)ccn3)N2)C1=O [Example 77, hydrochloride]	Not satisfied
CN1CC[C@@]2(CC[C@@H](c3cc(-c4ccccc4F)ccn3)N2)C1=O [Example 33, hydrochloride]	Not satisfied
CN1CC[C@@]2(CC[C@H](c3cc(-c4cccc5cccnc45)ccn3)N2)C1=O [Example 164, hydrochloride]	Not satisfied
CCOc1ccc(F)c(-c2cc(C(C)C)nc([C@@H]3CC[C@@]4(CCN(C)C4=O)N3)c2)c1 [Example 236, hydrochloride]	Satisfied
CCOc1ccc(F)c(-c2ccnc([C@@H]3CC[C@]4(CC[C@H](C)NC4=O)N3)c2)c1 [Example 244, hydrochloride]	Satisfied
CCOc1ccc(F)c(-c2cc(C)nc([C@H]3CC[C@@]4(CCNC4=O)N3)c2)c1 [Example 104, hydrochloride]	Satisfied
COc1ccc(F)c(-c2cc(C)nc([C@H]3CC[C@@]4(CCN(C)C4=O)N3)c2)c1 [Example 195, hydrochloride]	Not satisfied
Cc1c(-c2ccc(F)cc2)ccnc1[C@H]1CC[C@@]2(CCN(C)C2=O)N1 [Example 19, hydrochloride]	Satisfied
